Tested on: Escherichia coli
Assay: Antimicrobial activity against Escherichia coli after 24 hrs by tube dilution method
Type: functional

[
  {
    "compound_structure": "COc1ccc(-c2ncc[nH]2)cc1",
    "MBC (µM)": 263
  },
  {
    "compound_structure": "Clc1cccc(-c2ncc[nH]2)c1",
    "MBC (µM)": 561
  },
  {
    "compound_structure": "Clc1ccc(-c2ncc[nH]2)cc1",
    "MBC (µM)": 702
  },
  {
    "compound_structure": "O=C(c1ccccc1Br)n1ccnc1-c1ccc([N+](=O)[O-])cc1",
    "MBC (µM)": 33
  },
  {
    "compound_structure": "O=[N+]([O-])c1ccccc1-c1ncc[nH]1",
    "MBC (µM)": 33
  },
  {
    "compound_structure": "O=[N+]([O-])c1ccc(-c2ncc[nH]2)cc1",
    "MBC (µM)": 33
  },
  {
    "compound_structure": "Brc1ccc(-c2ncc[nH]2)cc1",
    "MBC (µM)": 28
  },
  {
    "compound_structure": "COc1ccc(-c2nccn2C(=O)c2ccc([N+](=O)[O-])cc2)cc1",
    "MBC (µM)": 147
  },
  {
    "compound_structure": "O=C(O)c1ccccc1-c1ncc[nH]1",
    "MBC (µM)": 265
  },
  {
    "compound_structure": "c1ccc(-c2ncc[nH]2)cc1",
    "MBC (µM)": 43
  },
  {
    "compound_structure": "O=C(c1ccccc1Br)n1ccnc1-c1ccccc1Cl",
    "MBC (µM)": 268
  },
  {
    "compound_structure": "COc1ccc(-c2nccn2C(=O)c2ccccc2Br)cc1",
    "MBC (µM)": 628
  },
  {
    "compound_structure": "O=C(c1ccc([N+](=O)[O-])cc1)n1ccnc1-c1ccc(Cl)cc1",
    "MBC (µM)": 305
  }
]
